Property: self-cleavage; scope: individual variants
B1: CPEB3 Ribozyme (parent)
chain: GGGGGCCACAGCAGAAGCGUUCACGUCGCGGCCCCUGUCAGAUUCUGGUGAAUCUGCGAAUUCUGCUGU

variants of: B1; assay: self-cleavage, relative activity (ratio to wild type); higher = more cleavage; co-transcriptional
propertyName: self-cleavage

{"mutations": "C29U U61C", "result": 0.183}
{"mutations": "U49G G58C", "result": 1}
{"mutations": "A13U G56U", "result": 0.348}
{"mutations": "C33A G47U", "result": 0.961}
{"mutations": "C27A C54G", "result": 0.156}
{"mutations": "G14A A59C", "result": 0.343}
{"mutations": "G5U C35U", "result": 0.0952}
{"mutations": "G31A G65U", "result": 0.594}
